test system: transactivating tegument protein VP16 (Human herpesvirus 1), Gal4-VP16 luciferase reporter; experiment: VP16 transactivation inhibitors, counter-screen for SRC3 inhibitor project, cell-based, luminescence, high throughput (AID 588794); settings: mammalian cells, VP16-driven luciferase reporter luminescence; at 3.6 µM
Active and inactive are the calls of the source. Cut-off read from the data, not from the text of the source: active = inhibition above about 30%; inactive = the rest.
Log the outcome using a class from yes (1) = active, no (0) = inactive

Some solved entries appear below for comparison.
>>> label_value("CC(C)N(CC(=O)Nc1ccc(Cl)cc1C(F)(F)F)C(=O)CCl")
"yes (1)"
>>> label_value("COc1ccc(CCNC(=O)C2CCCN(S(C)(=O)=O)C2)cc1OC (configuration not stated)")
"no (0)"
>>> label_value("NC(=S)NN=Cc1nccc2c(C(F)(F)C(F)(F)C(F)(F)F)cccc12")
"yes (1)"
>>> label_value("O=C(Nc1ccc(F)cc1)Nc1cc(OCC(F)(F)F)cc(OCC(F)(F)F)c1")
"yes (1)"

[in] Name the outcome recorded for CC(C)CCCCCCCCCCCCC(=O)NCC(=O)NC1C(C)OC(Nc2ncnc3nc[nH]c23)C(O)C1O (configuration not stated) in the assay.
[out] yes (1)

[in] For `N#CCc1c[nH]c2ccc([N+](=O)[O-])cc12` then?
[out] no (0)

[in] Try the molecule O=C(OC1C2CCC1C1CN(CCc3ccccc3)CC12)c1ccccc1 (configuration not stated)
[out] no (0)

[in] Can you handle `Clc1ccc(-c2noc(CSc3nnc(-c4ccncc4)n3-c3ccccc3)n2)cc1` next?
[out] no (0)

[in] Next entry: COc1cc2c(cc1OC)C(C)N(C(=O)c1cccc([N+](=O)[O-])c1)CC2 (configuration not stated)
[out] no (0)

* * *

Reported inhibition values are given for each entry in this list.
molecular target: Induced myeloid leukemia cell differentiation protein Mcl-1 (Homo sapiens) (UniProt Q07820); test: inhibitors of MCL1 binding to BIM-BH3, confirmation, biochemical, fluorescence polarization, triplicate (AID 2168); conditions: GST-MCL1 / FITC-Bim-BH3 fluorescence polarization; at 10.9 µM; active compounds read high;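 note: 0% = DMSO wells and 100% = unlabeled Bim-BH3 control peptide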
Sequence (Q07820 whole entry, looked up): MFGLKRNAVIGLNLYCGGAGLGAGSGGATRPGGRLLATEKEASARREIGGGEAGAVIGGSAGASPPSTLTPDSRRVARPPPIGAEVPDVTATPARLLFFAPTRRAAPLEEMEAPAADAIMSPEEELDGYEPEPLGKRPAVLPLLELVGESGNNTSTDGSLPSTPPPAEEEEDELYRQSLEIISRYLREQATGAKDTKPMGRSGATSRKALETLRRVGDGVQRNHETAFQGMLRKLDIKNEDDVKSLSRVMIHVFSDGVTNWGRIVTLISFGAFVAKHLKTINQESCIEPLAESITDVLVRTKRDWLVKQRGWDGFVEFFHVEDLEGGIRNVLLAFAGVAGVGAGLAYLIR
The other results are listed elsewhere or left out.
Answer in %, number only, no unit symbol.

Solved entries:
>>> endpoint_value("O=c1ccc2c(-c3ccccc3S(=O)(=O)O)c3ccc(O)c(O)c3oc-2c1O")
67.6
>>> endpoint_value("CCCC1OC23CCCCC2C(C#N)(C#N)C1(C#N)C(=N)O3 (stereo not given)")
21
>>> endpoint_value("COc1ccc(Cl)cc1NC(=O)CCS(=O)(=O)c1ccc(Br)cc1")
46.5
>>> endpoint_value("Nc1cccc2c1C(=O)N(Cc1nnc(-c3ccccc3Br)o1)C2=O")
69
>>> endpoint_value("COc1ccc2[nH]c(C)c(CCN(Cc3cccs3)C(=S)Nc3ccccc3OC)c2c1")
12.4

[in] Please look up its inhibition: CN(C(=O)COC(=O)c1cc(-c2ccco2)nc2ccccc12)C1CCS(=O)(=O)C1 (stereo not given)
[out] 95.6

[in] Then what about the molecule `COC(=O)c1sc(NC(=S)NC(=O)c2ccc(C)cc2)nc1C` ?
[out] 19.3

[in] Same again, this time with `COCCOC(=O)c1sc(=S)n(CCOC)c1N`
[out] 131

[in] Try the molecule `CN(C)c1ccc(Nc2c3c4c(cccc4n(C)c2=O)C(=O)c2ccccc2-3)cc1`
[out] 91.2

[in] Same for `Cc1ccc(NC(=O)c2cc(-c3ccc(C)o3)nc3ccccc23)nc1`
[out] 41.7
